# study_target: T1, TNFR1 (Homo sapiens, UniProt P19438)
# T1 chain: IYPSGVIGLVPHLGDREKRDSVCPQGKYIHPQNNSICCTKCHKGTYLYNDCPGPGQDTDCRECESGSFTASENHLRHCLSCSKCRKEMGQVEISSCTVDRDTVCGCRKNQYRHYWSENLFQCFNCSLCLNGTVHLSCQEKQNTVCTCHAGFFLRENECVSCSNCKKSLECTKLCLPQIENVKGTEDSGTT
# test_description: yeast display SC50
property_name: apparent Kd (screen) (nM)
Output spec: scalar in nM, unitless text.

Field: example entries. Status: answers known.
[
  {
    "binder": "E103S (designed binder) SMEEEVEKAAKEYEKKKKEAIEKHLEKLKAKDKEAAERFLKELEEAAKEYAKDEAKTMSEEEAKRRAKKYKEKVLLSELSEEEQKEIKEAEEKLVRTILKYVSEAAK",
    "number": 0.49
  },
  {
    "binder": "A36D (designed binder) SMEEEVEKAAKEYEKKKKEAIEKHLEKLKAKDKEADERFLKELEEAAKEYAKDEAKTMSEEEAKRRAKKYKEKVLLSELSEEEQKEIKEAEEKLVRTILKYVEEAAK",
    "number": 0.446
  },
  {
    "binder": "E83W (designed binder) SMEEEVEKAAKEYEKKKKEAIEKHLEKLKAKDKEAAERFLKELEEAAKEYAKDEAKTMSEEEAKRRAKKYKEKVLLSELSEEWQKEIKEAEEKLVRTILKYVEEAAK",
    "number": 2.25
  },
  {
    "binder": "E81L (designed binder) SMEEEVEKAAKEYEKKKKEAIEKHLEKLKAKDKEAAERFLKELEEAAKEYAKDEAKTMSEEEAKRRAKKYKEKVLLSELSLEEQKEIKEAEEKLVRTILKYVEEAAK",
    "number": 0.653
  }
]

-- ask Consider the binder E3N (designed binder) SMNEEVEKAAKEYEKKKKEAIEKHLEKLKAKDKEAAERFLKELEEAAKEYAKDEAKTMSEEEAKRRAKKYKEKVLLSELSEEEQKEIKEAEEKLVRTILKYVEEAAK . State its measured apparent Kd (screen).
-- reply 2.73

-- ask Consider the binder S1F (designed binder) FMEEEVEKAAKEYEKKKKEAIEKHLEKLKAKDKEAAERFLKELEEAAKEYAKDEAKTMSEEEAKRRAKKYKEKVLLSELSEEEQKEIKEAEEKLVRTILKYVEEAAK . State its measured apparent Kd (screen).
-- reply 4.39

-- ask Consider the binder A9R (designed binder) SMEEEVEKRAKEYEKKKKEAIEKHLEKLKAKDKEAAERFLKELEEAAKEYAKDEAKTMSEEEAKRRAKKYKEKVLLSELSEEEQKEIKEAEEKLVRTILKYVEEAAK . State its measured apparent Kd (screen).
-- reply 0.335

-- ask Consider the binder L40E (designed binder) SMEEEVEKAAKEYEKKKKEAIEKHLEKLKAKDKEAAERFEKELEEAAKEYAKDEAKTMSEEEAKRRAKKYKEKVLLSELSEEEQKEIKEAEEKLVRTILKYVEEAAK . State its measured apparent Kd (screen).
-- reply 0.49
